Measured values drawn from paper PMC3549248 for this set.

Target: T1, pGADT7Rec-peripherin, P41219
T1 chain: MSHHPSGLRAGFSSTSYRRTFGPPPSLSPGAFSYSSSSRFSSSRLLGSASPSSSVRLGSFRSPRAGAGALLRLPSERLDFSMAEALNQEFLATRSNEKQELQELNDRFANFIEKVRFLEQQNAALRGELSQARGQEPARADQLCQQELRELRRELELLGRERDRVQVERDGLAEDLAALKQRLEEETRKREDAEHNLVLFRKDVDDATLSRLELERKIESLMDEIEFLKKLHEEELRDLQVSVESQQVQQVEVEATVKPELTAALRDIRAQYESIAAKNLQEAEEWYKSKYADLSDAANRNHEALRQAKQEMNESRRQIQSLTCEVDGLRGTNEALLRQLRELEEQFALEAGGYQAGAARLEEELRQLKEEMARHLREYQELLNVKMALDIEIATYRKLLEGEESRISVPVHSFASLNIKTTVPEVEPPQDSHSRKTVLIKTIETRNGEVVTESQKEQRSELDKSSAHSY
Experiment: yeast two-hybrid β-galactosidase liquid assay
Conditions: chain shown with the change; ONPG as substrate; parent: est. 80; read off a plot
Reported response (relative units) values follow for various binders
Kindly provide the number alone.

* pGBKT7-RAB7A wt, P18067 T22N (protein) MTSRKKVLLKVIILGDSGVGKNSLMNQYVNKKFSNQYKATIGADFLTKEVMVDDRLVTMQIWDTAGQERFQSLGVAFYRGADCCVLVFDVTAPNTFKTLDSWRDEFLIQASPRDPENFPFVVLGNKIDLENRQVATKRAQAWCYSKNNIPYFETSAKEAINVEQAFQTIARNALKQETEVELYNEFPEPIKLDKNDRAKTSAESCSC | 115
* pGBKT7-RAB7A wt, P18067 N161T (protein) MTSRKKVLLKVIILGDSGVGKTSLMNQYVNKKFSNQYKATIGADFLTKEVMVDDRLVTMQIWDTAGQERFQSLGVAFYRGADCCVLVFDVTAPNTFKTLDSWRDEFLIQASPRDPENFPFVVLGNKIDLENRQVATKRAQAWCYSKNNIPYFETSAKEAITVEQAFQTIARNALKQETEVELYNEFPEPIKLDKNDRAKTSAESCSC | 102
* pGBKT7-RAB7A wt, P18067 K157N (protein) MTSRKKVLLKVIILGDSGVGKTSLMNQYVNKKFSNQYKATIGADFLTKEVMVDDRLVTMQIWDTAGQERFQSLGVAFYRGADCCVLVFDVTAPNTFKTLDSWRDEFLIQASPRDPENFPFVVLGNKIDLENRQVATKRAQAWCYSKNNIPYFETSANEAINVEQAFQTIARNALKQETEVELYNEFPEPIKLDKNDRAKTSAESCSC | 98

Prompt: Give the measured response (relative units) for pGBKT7-RAB7A wt, P18067 V162M (protein) MTSRKKVLLKVIILGDSGVGKTSLMNQYVNKKFSNQYKATIGADFLTKEVMVDDRLVTMQIWDTAGQERFQSLGVAFYRGADCCVLVFDVTAPNTFKTLDSWRDEFLIQASPRDPENFPFVVLGNKIDLENRQVATKRAQAWCYSKNNIPYFETSAKEAINMEQAFQTIARNALKQETEVELYNEFPEPIKLDKNDRAKTSAESCSC
Response: 99
